study_target: Galectin-1 (Homo sapiens) (UniProt P09382)
Sequence (P09382 whole entry): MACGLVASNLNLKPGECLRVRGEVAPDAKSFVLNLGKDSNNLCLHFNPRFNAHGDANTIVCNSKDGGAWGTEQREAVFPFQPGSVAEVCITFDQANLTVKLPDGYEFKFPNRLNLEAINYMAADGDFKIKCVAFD
assay_info: Inhibition of Galectin1
Measured Activity accompanies every entry in the list below.

smiles_entry	unit	Activity
O=S(=O)(c1ccc(Br)cc1)[C@@H]1O[C@H](CO)[C@@H](O[C@@H]2O[C@H](CO)[C@H](O)[C@H](O)[C@H]2O)[C@H](O)[C@H]1O	mM	0.313
CC(=O)OC[C@H]1O[C@@H](Sc2ccc([N+](=O)[O-])cc2)[C@H](OC(C)=O)[C@@H](OC(C)=O)[C@@H]1O[C@@H]1O[C@H](CO)[C@H](O)[C@H](O)[C@H]1O	mM	0.313
O=C[C@H](O)[C@@H](O)[C@@H](O)[C@H](O)CO	mM	50
COc1ccc(S[C@@H]2O[C@H](COC(C)=O)[C@@H](O[C@@H]3O[C@H](CO)[C@H](O)[C@H](O)[C@H]3O)[C@H](OC(C)=O)[C@H]2OC(C)=O)cc1	mM	0.313
CC(=O)OC[C@H]1O[C@@H](Oc2ccc([N+](=O)[O-])cc2)[C@H](OC(C)=O)[C@@H](OC(C)=O)[C@H]1O	mM	10
CC(=O)OC[C@H]1O[C@@H](Sc2ccc3ccccc3c2)[C@H](OC(C)=O)[C@@H](OC(C)=O)[C@@H]1O[C@@H]1O[C@H](CO)[C@H](O)[C@H](O)[C@H]1O	mM	0.313
CC(=O)OC[C@H]1O[C@@H](Sc2ccc3ccccc3c2)[C@H](OC(C)=O)[C@@H](OC(C)=O)[C@H]1O	mM	5
O=S(=O)(c1ccc2ccccc2c1)[C@@H]1O[C@H](CO)[C@@H](O[C@@H]2O[C@H](CO)[C@H](O)[C@H](O)[C@H]2O)[C@H](O)[C@H]1O	mM	0.04

---

Measured Activity, listed per entry.
study_target: Galectin-1 (Homo sapiens) (UniProt P09382)
assay_info: Inhibition of Galectin1

smiles_entry	Activity
CC(=O)OC[C@H]1O[C@@H](Sc2ccc([N+](=O)[O-])cc2)[C@H](OC(C)=O)[C@@H](OC(C)=O)[C@H]1O	2.5 mM
CC(=O)OC[C@H]1O[C@@H](Oc2ccccc2[N+](=O)[O-])[C@H](OC(C)=O)[C@@H](OC(C)=O)[C@H]1O	> 5 mM
COc1ccc(S[C@@H]2O[C@H](COC(C)=O)[C@H](O)[C@H](OC(C)=O)[C@H]2OC(C)=O)cc1	> 5 mM
CC(=O)OC[C@H]1O[C@@H](Oc2ccc([N+](=O)[O-])cc2)[C@H](OC(C)=O)[C@@H](OC(C)=O)[C@@H]1O[C@@H]1O[C@H](CO)[C@H](O)[C@H](O)[C@H]1O	0.313 mM

---

study_target: Galectin-3 (Homo sapiens)
assay_info: Inhibition of Galectin3
List of Activity values.
recorded_metric: Activity (mM)

>>> df
                               smiles_entry               study_target  censoring_qualifier  numeric_value
0  O=S(=O)(c1ccc(Br)cc1)[C@@H]1O[C@H](CO)[C@@H](O[C@@H]2O[C@H](CO)[C@H](O)[C@H](O)[C@H]2O)[C@H](O)[C@H]1O  Galectin-3 (Homo sapiens)                    =          0.313
1   O=C[C@H](O)[C@@H](O)[C@@H](O)[C@H](O)CO  Galectin-3 (Homo sapiens)                    =             50
2  COc1ccc(S(=O)(=O)[C@@H]2O[C@H](CO)[C@H](O)[C@H](O)[C@H]2O)cc1  Galectin-3 (Homo sapiens)                    >              5
